Entries with their measured IC50, system Cytochrome P450 3A4 (Homo sapiens):

> print(dat)
                            compound.string  experimental.result
1  Nc1nc2c(s1)CC[C@H]2C(=O)Nc1ccc(C[C@@H]2CC[C@H]([C@H](O)c3ccccc3)N2)cc1                86 µM
2  O=C(Nc1ccc(C[C@@H]2CC[C@H]([C@H](O)c3cccnc3)N2)cc1)[C@@H]1CCc2scnc21             > 100 µM

Tested system Cytochrome P450 3A4 (Homo sapiens); IC50 recorded for "O=C(Nc1ccc(C[C@@H]2CC[C@H]([C@H](O)c3cccnc3)N2)cc1)[C@@H]1CCc2ccnn21" was > 100 µM
